The origin of these recorded values is patent US20210318322A1.

Molecular target: T1, human VISTA extracellular domain (human, UniProt Q9H7M9 33-194)
T1 construct: also called human VISTA ECD; SB0361 (human)
T1 sequence (Q9H7M9 other isoform, or with tags, fused parts or gaps limits assumed): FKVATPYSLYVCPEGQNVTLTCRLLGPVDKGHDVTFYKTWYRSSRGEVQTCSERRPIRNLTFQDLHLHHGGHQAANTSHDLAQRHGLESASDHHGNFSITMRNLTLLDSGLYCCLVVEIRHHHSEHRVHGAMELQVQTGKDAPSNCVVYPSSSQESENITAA
Assay: SPR ProteOn
Recorded measurements of pKd, one per entry
Scale: pKd equals -log10([C]), with [C] in mol/L.

Field: example entries. Status: answers known.
1) VSTB60 (antibody, human IgG1, kappa, V domains shown, also called S47; INX Code 47) VH: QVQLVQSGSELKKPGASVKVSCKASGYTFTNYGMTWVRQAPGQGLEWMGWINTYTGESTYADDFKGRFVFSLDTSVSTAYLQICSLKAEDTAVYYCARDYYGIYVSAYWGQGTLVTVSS VL: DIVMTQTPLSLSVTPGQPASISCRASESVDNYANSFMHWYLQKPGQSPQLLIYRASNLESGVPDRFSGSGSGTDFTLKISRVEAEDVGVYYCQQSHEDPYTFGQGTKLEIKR : 9.45
2) VSTB50 (antibody, human IgG1, kappa, V domains shown, also called S41; INX Code 41) VH: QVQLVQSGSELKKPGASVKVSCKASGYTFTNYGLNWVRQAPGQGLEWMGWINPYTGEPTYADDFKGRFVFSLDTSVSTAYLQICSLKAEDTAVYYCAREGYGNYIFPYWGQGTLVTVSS VL: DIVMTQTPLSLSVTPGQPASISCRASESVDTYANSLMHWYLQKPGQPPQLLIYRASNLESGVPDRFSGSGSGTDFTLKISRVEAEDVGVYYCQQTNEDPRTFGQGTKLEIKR : 9.20
3) VSTB53 (antibody, human IgG1, kappa, V domains shown, also called S43; INX Code 43) VH: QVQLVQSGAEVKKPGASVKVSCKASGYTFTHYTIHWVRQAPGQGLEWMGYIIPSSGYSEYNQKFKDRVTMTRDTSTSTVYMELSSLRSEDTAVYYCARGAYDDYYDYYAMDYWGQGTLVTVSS VL: DIVMTQSPLSLPVTPGEPASISCRSSQTIVHSNGNTYLEWYLQKPGQSPQLLIYKVSNRFSGVPDRFSGSGSGTDFTLKISRVEAEDVGVYYCFQASHVPWTFGQGTKLEIKR : 10.58

Here is another binder to look at.
stdin: Name the reported pKd value associated with the binder VSTB95 (antibody, human IgG1, kappa, V domains shown, also called S16; INX Code 16) VH: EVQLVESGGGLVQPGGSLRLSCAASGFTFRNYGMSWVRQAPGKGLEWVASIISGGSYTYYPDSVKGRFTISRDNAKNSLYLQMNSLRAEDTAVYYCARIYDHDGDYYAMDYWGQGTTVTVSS VL: DIVMTQSPLSLPVTPGEPASISCRSSQSIVHSNGNTYLEWYLQKPGQSPQLLIYKVSNRFSGVPDRFSGSGSGTDFTLKISRVEAEDVGVYYCFQGSHVPWTFGQGTKLEIKR
stdout: 9.90
